Tested on: 885724-159-R-J1-PDC KRAS PDC multicell spheroid viability
assay.name: Anticancer human tumor 885724-159-R-J1-PDC patient-derived pancreatic adenocarcinoma cell line growth inhibition [KRAS2]
test.conditions: second compound 1 µM; first compound 10 µM; active compounds read low
# viability, T/C binned as 0: < 40%; 1: ≥ 40% and < 50%; 2: ≥ 50%

Take a look at these entries with their results.
COC(=O)c1ccc2c(C(=Nc3ccc(N(C)C(=O)CN4CCN(C)CC4)cc3)c3ccccc3)c(O)[nH]c2c1 + CNCc1ccccc1-c1csc(C(C)Nc2nc(C)nc3cc(OC)c(OC)cc23)c1; 0
COc1cc2nccc(Oc3ccc(NC(=O)C4(C(=O)Nc5ccc(F)cc5)CC4)cc3)c2cc1OC + COc1cc2nc(C)nc(NC(C)c3cc(N)cc(C(F)(F)F)c3)c2cc1OC1CCOC1; 1
CC1(C)CCC(CN2CCN(c3ccc(C(=O)NS(=O)(=O)c4ccc(NCC5CCOCC5)c([N+](=O)[O-])c4)c(Oc4cnc5[nH]ccc5c4)c3)CC2)=C(c2ccc(Cl)cc2)C1 + C=CC(=O)N1CCN(c2nc(=O)n(-c3c(C)ccnc3C(C)C)c3nc(-c4c(O)cccc4F)c(F)cc23)C(C)C1; 0

Qu. Form field 'band' for CC(C)NCC(C(=O)N1CCN(c2ncnc3c2C(C)CC3O)CC1)c1ccc(Cl)cc1 (stereo not given) + CC1OCC2(CCN(c3cnc(Sc4ccnc(N)c4Cl)c(N)n3)CC2)C1N
Ans. 1

Qu. Form field 'band' for COc1cc(Nc2ncc3c(n2)-c2ccc(Cl)cc2C(c2c(F)cccc2OC)=NC3)ccc1C(=O)O + CNCc1ccccc1-c1csc(C(C)Nc2nc(C)nc3cc(OC)c(OC)cc23)c1
Ans. 2

Qu. Form field 'band' for O=C(c1cc(Cc2n[nH]c(=O)c3ccccc23)ccc1F)N1CCN(C(=O)C2CC2)CC1 + C=CC(=O)N1CCN(c2nc(OCC3CCCN3C)nc3c2CCN(c2cccc4cccc(C)c24)C3)CC1CC#N
Ans. 2

Qu. Form field 'band' for COc1cc(Nc2ncc3c(n2)-c2ccc(Cl)cc2C(c2c(F)cccc2OC)=NC3)ccc1C(=O)O + C=CC(=O)N1CCN(c2nc(OCC3CCCN3C)nc3c2CCN(c2cccc4cccc(C)c24)C3)CC1CC#N
Ans. 2

Qu. Form field 'band' for CCNC(=O)CC1N=C(c2ccc(Cl)cc2)c2cc(OC)ccc2-n2c(C)nnc21 (stereo not given) + COc1cc2nc(C)nc(NC(C)c3cc(N)cc(C(F)(F)F)c3)c2cc1OC1CCOC1
Ans. 1

Qu. Form field 'band' for CC(C)NCC(C(=O)N1CCN(c2ncnc3c2C(C)CC3O)CC1)c1ccc(Cl)cc1 (stereo not given) + C=CC(=O)N1CCN(c2nc(OCC3CCCN3C)nc3c2CCN(c2cccc4cccc(C)c24)C3)CC1CC#N
Ans. 1

Qu. Form field 'band' for CCNC(=O)CC1N=C(c2ccc(Cl)cc2)c2cc(OC)ccc2-n2c(C)nnc21 (stereo not given) + CC1OCC2(CCN(c3cnc(Sc4ccnc(N)c4Cl)c(N)n3)CC2)C1N
Ans. 0

---

Tested on: 885724-159-R-J1-PDC KRAS PDC multicell spheroid viability
assay.name: Anticancer human tumor 885724-159-R-J1-PDC cell line growth inhibition [KRAS2];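 also: spheroids exposed to agents for 7 days before readout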
test.conditions: compound 1 µM; active compounds read low
viability, T/C values for the molecules below.

Some molecules with recorded viability, T/C:
CC(=O)OC12COC1CC(O)C1(C)C(=O)C(O)C3=C(C)C(OC(=O)C(O)C(NC(=O)OC(C)(C)C)c4ccccc4)CC(O)(C(OC(=O)c4ccccc4)C21)C3(C)C (stereo not drawn); 112% [middle of 5 runs]
COC(=O)c1ccc2c(C(=Nc3ccc(N(C)C(=O)CN4CCN(C)CC4)cc3)c3ccccc3)c(O)[nH]c2c1; 103% [middle of 5 runs]

# input for lookup
Qu. Item COc1cc(OC)cc(N(CCNC(C)C)c2ccc3ncc(-c4cnn(C)c4)nc3c2)c1 has what recorded viability, T/C?
Ans. 121% [middle of 5 runs]
